- System: PC3
- experiment: PC3 tumor cell line proliferation assay
- Format: cell-based
- study-conditions: Homo sapiens, PC-3; Table 1
Assign EC50 to each entry below.

[in] Any idea what EC50 was measured for CC(=O)Nc1noc2cc(-c3nn(C(C)C)c4ncnc(N)c34)ccc12 [Compound 11] ?
[out] > 10 µM

[in] Same lookup for Nc1nc2cc(-c3nn(C4CCOCC4)c4ncnc(N)c34)ccc2o1 [Compound 5] , please.
[out] < 0.1 µM

[in] Same lookup for CC(C)n1nc(-c2ccc3nc(N)oc3c2)c2c(N)ncnc21 [Compound 4] , please.
[out] < 10 µM

[in] Same lookup for CC(C)n1cc(-c2ccc3oc(N)nc3c2)c2c(N)ncnc21 [Compound 8] , please.
[out] < 0.1 µM

[in] Same lookup for CC(=O)Nc1nc2cc(-c3nn(C(C)C)c4ncnc(N)c34)ccc2o1 [Compound 2] , please.
[out] < 1 µM

[in] Same lookup for CC(=O)N1CCC(n2nc(-c3ccc4oc(N)nc4c3)c3c(N)ncnc32)CC1 [Compound 7] , please.
[out] < 10 µM

[in] Same lookup for Nc1nc2cc(-c3cn(C4CCOCC4)c4ncnc(N)c34)ccc2o1 [Compound 9] , please.
[out] < 0.1 µM
